Entry source: patent US20090104205A1

# target: T1, C-terminal truncated RSV F protein (secreted, from recombinant baculovirus) (respiratory syncytial virus, UniProt P03420 26-524)
# T1 construct: also called immobilized F protein
# T1 sequence (P03420 26-524): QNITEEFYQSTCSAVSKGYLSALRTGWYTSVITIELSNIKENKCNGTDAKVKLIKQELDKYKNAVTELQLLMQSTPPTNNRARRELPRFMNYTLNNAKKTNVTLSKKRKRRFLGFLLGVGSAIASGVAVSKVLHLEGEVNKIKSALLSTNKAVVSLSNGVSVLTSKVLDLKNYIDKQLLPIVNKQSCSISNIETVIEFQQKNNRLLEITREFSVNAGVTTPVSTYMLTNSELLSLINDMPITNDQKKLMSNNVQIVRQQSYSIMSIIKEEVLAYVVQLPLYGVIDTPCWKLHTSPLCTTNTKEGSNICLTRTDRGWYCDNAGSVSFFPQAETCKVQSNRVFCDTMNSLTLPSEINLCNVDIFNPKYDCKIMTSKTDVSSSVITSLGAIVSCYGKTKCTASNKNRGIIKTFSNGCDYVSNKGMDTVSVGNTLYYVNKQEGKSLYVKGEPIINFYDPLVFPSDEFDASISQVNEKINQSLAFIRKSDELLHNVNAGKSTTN
# test_details: SPR (BIAcore), F protein amine-coupled, Mab injected at 25-300 nM

binder: murine monoclonal antibody MAb 1129 (antibody, V domains shown, also called M1129) VH: QVELQESGPGILQPSQTLSLTCSFSGFSLSTSGMSVGWIRQPSGEGLEWLADIWWDDKKDYNPSLKSRKTISKDTSSNQVFLKITGVDTADTATYYCARSMITNWYFDVWGAGTTVTVSS VL: DIQLTQSPAIMSASPGEKVTMTCSASSSVGYMHWYQQKSSTSPKLWIYDTSKLASGVPGRFSGSGSGNSYSLTISSIQAEDVATYYCFQGSGYPFTFGGGTKLEIK
koff: 0.0004 s⁻¹
--
binder: humanized 1308F (CDR-grafted anti-RSV F antibody, human IgG1/kappa) (antibody, V domains shown, also called H1308F; Hu1308F) VH: QVQLVQSGAEVKKPGASVKVSCKASGFNIKDYYIYWVRQAPGQGLEWIGWIDPENGNTVFDPKFNGRVTMTRDTSTSTVYMELSSLRSEDTAVYYCAYYGTSSFDFWGQGTTLTVSS VL: DIQMTQSPSTLSASVGDRVTITCKASQDINRYLNWYQQKPGKAPKLLIYRANRLVDGVPSRFSGSGSGTEFTLTISSLQPDDFATYYCLQFHEFPYTFGGGTKLEIL
koff: 5.5e-05 s⁻¹
--
binder: humanized 1129 (CDR-grafted anti-RSV F antibody, human IgG1/kappa) (antibody, V domains shown, also called H1129; Hu1129) VH: QVTLRESGPALVKPTQTLTLTCTFSGFSLSTSGMSVGWIRQPPGKALEWLADIWWDDKKDYNPSLKSRLTISKDTSKNQVVLKVTNMDPADTATYYCARSMITNWYFDVWGAGTTVTVSS VL: DIQMTQSPSTLSASVGDRVTITCKCQLSVGYMHWYQQKPGKAPKLWIYDTSKLASGVPSRFSGSGSGTEFTLTISSLQPDDFATYYCFQGSGYPFTFGGGTKLEIK
koff: 6.9e-05 s⁻¹
--
binder: murine monoclonal antibody MAb 1308F (antibody, V domains shown, also called M1308F; Mu1308F) VH: EVQKQQSGAELVRPGALVKLSCKASGFNIKDYYIYWVKQRPEQGLEWIGWIDPENGNTVFDPLFQGKASITSDTSSNTAYLQLSSLTSEDTAVYYCAYYGTSSFDFWGQGTTLTVSS VL: DIKMTQSPSSMYVSLGERVTITCKASQDINRYLNWFQQKPGKSPKTLIHRANRLVDGVPSRFSGSGSGQEYSLTISSLEFEDMGIYYCLQFHEFPYTFGGGTKLEIL
koff: 3.8e-05 s⁻¹
